The origin of these recorded values is patent US20250302815A1.

# Tested system: PTPN2 (HiBIT-PTPN2 in 293T.109 cells) (Homo sapiens)
# Construct: expressed in transfected cells; host or cells: 293T.109 (293T WT from ATCC)
# Sequence (P17706 1-415): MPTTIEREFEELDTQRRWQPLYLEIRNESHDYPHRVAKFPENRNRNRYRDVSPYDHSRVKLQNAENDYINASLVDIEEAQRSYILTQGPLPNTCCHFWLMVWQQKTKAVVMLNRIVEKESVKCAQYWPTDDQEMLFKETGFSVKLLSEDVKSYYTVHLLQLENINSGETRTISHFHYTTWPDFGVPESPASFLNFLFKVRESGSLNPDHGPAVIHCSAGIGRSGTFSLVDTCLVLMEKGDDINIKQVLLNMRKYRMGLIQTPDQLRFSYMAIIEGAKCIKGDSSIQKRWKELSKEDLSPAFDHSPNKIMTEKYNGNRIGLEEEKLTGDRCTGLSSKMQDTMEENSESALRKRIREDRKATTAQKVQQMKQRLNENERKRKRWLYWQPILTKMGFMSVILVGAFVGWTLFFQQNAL
# Experiment: HiBiT Degradation 293T.109 PTPN2 (Nano-Glo HiBiT Lytic Assay)
# Type: cell-based
# Run parameters: 24.0 hours
Let's look at some molecules and their measured DC50.

Example results:
Molecule	Quantity name	Test value
Cn1c(=O)n(C2CCC(=O)NC2=O)c2ccc(C3CCN(C(=O)Nc4cccc(CS(=O)(=O)N5CCC(Nc6cccc(-c7sc(C(=O)O)c(OCC(=O)O)c7Cl)c6)CC5)c4)CC3)cc21 (stereo not drawn)	DC50	50 to 200 nM
CC1(C)C[C@@H](Nc2cccc(-c3sc(C(=O)O)c(OCC(=O)O)c3Cl)c2)CCN1S(=O)(=O)Cc1cccc(NC(=O)CN2CCC(c3ccc4c(c3)oc(=O)n4C3CCC(=O)NC3=O)CC2)c1 (stereo partly drawn)	DC50	50 to 200 nM
Cn1c(=O)n(C2CCC(=O)NC2=O)c2ccc(N3CC4(CCN(C(=O)Nc5cccc(CS(=O)(=O)N6CCC(Nc7cccc(-c8sc(C(=O)O)c(OCC(=O)O)c8Cl)c7)CC6)c5)CC4)C3)cc21 (stereo not drawn)	DC50	50 to 200 nM
O=C(O)COc1c(C(=O)O)sc(-c2cccc(NC3CCN(S(=O)(=O)Cc4cccc(NC(=O)CCCCCN5CCC(Nc6cccc7c6CN(C6CCC(=O)NC6=O)C7=O)CC5)c4)CC3)c2)c1Cl (stereo not drawn)	DC50	200 to 1000 nM
Cn1c(=O)n(C2CCC(=O)NC2=O)c2ccc([C@H]3CN(C(=O)Nc4cccc(CS(=O)(=O)N5CC[C@H](Nc6cccc(-c7sc(C(=O)O)c(OCC(=O)O)c7Cl)c6)CC5(C)C)c4)CC[C@@H]3F)cc21 (stereo partly drawn)	DC50	200 to 1000 nM

The molecule identified as CC1(C)C[C@@H](Nc2cccc(-c3sc(C(=O)O)c(OCC(=O)O)c3Cl)c2)CCN1S(=O)(=O)Cc1cccc(NC(=O)CNc2ccc3c(c2)CN(C2CCC(=O)NC2=O)C3=O)c1 (stereo partly drawn) registered its DC50 at 200 to 1000 nM

# DC50 (molecule: CC1(C)C[C@H](Nc2cccc(-c3sc(C(=O)O)c(OCC(=O)O)c3Cl)c2)CCN1S(=O)(=O)Cc1cc(NC(=O)N2CCC(c3ccc4c5c(cccc35)C(=O)N4C3CCC(=O)NC3=O)CC2)ccc1F (stereo partly drawn) ) is 200 to 1000 nM

Looking up Cn1c(=O)n(C2CCC(=O)NC2=O)c2ccc(N3CCC(O)(CC(=O)Nc4cccc(CS(=O)(=O)N5CC[C@@H](Nc6cccc(-c7sc(C(=O)O)c(OCC(=O)O)c7Cl)c6)CC5(C)C)c4)CC3)cc21 (stereo partly drawn) , I found its DC50 recorded as 200 to 1000 nM

# DC50 of Cn1c(=O)n(C2CCC(=O)NC2=O)c2ccc(C3CCN(C(=O)Nc4cccc(CS(=O)(=O)N5CCC(Nc6cccc(-c7sc(C(=O)O)c(OCC(=O)O)c7Cl)c6)CC5(C)C)c4F)CC3)cc21 (stereo not drawn) = 50 to 200 nM

Sure, the documented DC50 for Cn1c(=O)n(C2CCC(=O)NC2=O)c2ccc(C3CCN(C(=O)Nc4cccc(CS(=O)(=O)N5CC[C@H](Nc6cccc(-c7sc(C(=O)O)c(OCC(=O)O)c7Cl)c6)CC5(C)C)c4)CC3)c(F)c21 (stereo partly drawn) is 50 to 200 nM

response.value for Cn1c(=O)n(C2CCC(=O)NC2=O)c2ccc(C3CCN(C(=O)Nc4cccc(CS(=O)(=O)N5CC[C@H](Oc6cccc(-c7sc(C(=O)O)c(OCC(=O)O)c7Cl)c6)CC5(C)C)c4)CC3)cc21 (stereo partly drawn) (field: DC50) = 200 to 1000 nM

For reference, reported DC50 for Cn1c(=O)n(C2CCC(=O)NC2=O)c2ccc(N3CCC(O)(CC(=O)Nc4cccc(CS(=O)(=O)N5CC[C@H](Nc6cccc(-c7sc(C(=O)O)c(OCC(=O)O)c7Cl)c6)CC5(C)C)c4)CC3)cc21 (stereo partly drawn) stands at 50 to 200 nM

====

// reported DC50 per item
# Tested system: PTPN2 (B16F10.4 cells) (Mus musculus)
# Construct: HiBiT; host or cells: B16F10.4
# Sequence (Q06180 whole entry): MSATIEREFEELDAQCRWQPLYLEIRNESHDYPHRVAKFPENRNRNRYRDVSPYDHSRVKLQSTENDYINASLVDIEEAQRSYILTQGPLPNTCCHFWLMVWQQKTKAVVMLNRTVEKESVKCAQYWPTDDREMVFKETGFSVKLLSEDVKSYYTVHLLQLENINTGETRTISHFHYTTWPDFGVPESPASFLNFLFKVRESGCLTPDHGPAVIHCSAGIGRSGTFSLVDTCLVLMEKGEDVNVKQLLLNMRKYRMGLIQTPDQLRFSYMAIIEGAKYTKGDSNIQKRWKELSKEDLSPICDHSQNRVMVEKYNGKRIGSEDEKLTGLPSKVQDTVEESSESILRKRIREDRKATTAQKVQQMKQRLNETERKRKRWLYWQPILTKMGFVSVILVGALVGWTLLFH
# Experiment: HiBiT Degradation B16F10.4 PTPN2
# Assay type: cell-based
# Run parameters: 24.0 hours

// worked examples, DC50 included
Compound	DC50
CN(C(=O)CCN1CCC(Nc2cccc3c2CN(C2CCC(=O)NC2=O)C3=O)CC1)c1cccc(CS(=O)(=O)N2CCC(Nc3cccc(-c4sc(C(=O)O)c(OCC(=O)O)c4Cl)c3)CC2(C)C)c1 (stereo not shown)	≥ 1 µM
O=C(O)COc1c(C(=O)O)sc(-c2cccc(NC3CCN(S(=O)(=O)Cc4ccc(F)c(NC(=O)C5CCN(C(=O)CNc6cccc7c6CN(C6CCC(=O)NC6=O)C7=O)CC5)c4)CC3)c2)c1Cl (stereo not shown)	≥ 1 µM
CC1(C)C[C@@H](Nc2cccc(-c3sc(C(=O)O)c(OCC(=O)O)c3Cl)c2F)CCN1S(=O)(=O)Cc1ccc(F)c(NC(=O)C2CN(C(=O)CNc3cccc4c3CN(C3CCC(=O)NC3=O)C4=O)C2)c1 (stereo partly shown)	0.05 to 0.2 µM

Per the record, CC1(C)C[C@@H](Nc2cccc(-c3sc(C(=O)O)c(OCC(=O)O)c3Cl)c2)CCN1S(=O)(=O)Cc1cccc(NC(=O)N2CCC(C(=O)NCc3cccc4c3CN(C3CCC(=O)NC3=O)C4=O)CC2)c1 (stereo partly shown) has DC50 of ≥ 1 µM

====

# Tested system: PTPN2 (HiBIT-PTPN2 in 293T.109 cells) (Homo sapiens, UniProt P17706)
# Construct: expressed in transfected cells; host or cells: 293T.109 (293T WT from ATCC)
# Experiment: HiBiT Degradation 293T.109 PTPN2 (Nano-Glo HiBiT Lytic Assay)
# Format: cell-based
# Run parameters: 24.0 hours
# Lookup of reported DC50 keyed by entry

Illustrative cases are given below, each with its answer.
Compound	DC50
O=C(O)COc1c(C(=O)O)sc(-c2cccc(NC3CCN(S(=O)(=O)Cc4ccc(F)c(NC(=O)C5CN(C(=O)CNc6cccc7c6CN(C6CCC(=O)NC6=O)C7=O)C5)c4)CC3)c2)c1Cl (stereo not shown)	< 50 nM
Cn1c(=O)n(C2CCC(=O)NC2=O)c2cccc(C3CCN(C(=O)Nc4cccc(CS(=O)(=O)N5CCC(Nc6cccc(-c7sc(C(=O)O)c(OCC(=O)O)c7Cl)c6)CC5)c4)CC3)c21 (stereo not shown)	200 to 1000 nM
Cn1c(=O)n(C2CCC(=O)NC2=O)c2ccc(CN3CCN(C(=O)Nc4cccc(CS(=O)(=O)N5CC[C@H](Nc6cccc(-c7sc(C(=O)O)c(OCC(=O)O)c7Cl)c6)CC5(C)C)c4)CC3)cc21 (stereo partly shown)	200 to 1000 nM
CC1(C)C[C@H](Nc2cccc(-c3sc(C(=O)O)c(OCC(=O)O)c3Cl)c2)CCN1S(=O)(=O)Cc1cccc(NC(=O)N2CCC(c3ccc4c(C5CCC(=O)NC5=O)cnn4c3)CC2)c1 (stereo partly shown)	200 to 1000 nM
O=C(O)COc1c(C(=O)O)sc(-c2cccc(NC3CCN(S(=O)(=O)Cc4cccc(NC(=O)CNc5ccc6c(c5)CN(C5CCC(=O)NC5=O)C6=O)c4)CC3)c2)c1Cl (stereo not shown)	200 to 1000 nM
CC1(C)C[C@@H](Nc2cccc(-c3sc(C(=O)O)c(OCC(=O)O)c3Cl)c2)CCN1S(=O)(=O)Cc1cccc(NC(=O)N2CCC(c3ccc4c(c3)n(C3CC3)c(=O)n4C3CCC(=O)NC3=O)CC2)c1 (stereo partly shown)	50 to 200 nM
CC1(C)C[C@@H](Nc2cccc(-c3sc(C(=O)O)c(OCC(=O)O)c3Cl)c2)CCN1S(=O)(=O)Cc1cccc(NC(=O)CCn2cc(CNc3cccc4c3C(=O)N(C3CCC(=O)NC3=O)C4=O)nn2)c1 (stereo partly shown)	200 to 1000 nM
CC(C)n1c(=O)n(C2CCC(=O)NC2=O)c2ccc(C3CCN(CC(=O)Nc4cccc(CS(=O)(=O)N5CC[C@H](Nc6cccc(-c7sc(C(=O)O)c(OCC(=O)O)c7Cl)c6)CC5(C)C)c4)CC3(F)F)cc21 (stereo partly shown)	50 to 200 nM
CC1(C)C[C@H](Nc2cccc(-c3sc(C(=O)O)c(OCC(=O)O)c3Cl)c2)CCN1S(=O)(=O)Cc1cccc(NC(=O)N2CCC(c3ccc4c(c3)n(C3COC3)c(=O)n4C3CCC(=O)NC3=O)CC2)c1 (stereo partly shown)	200 to 1000 nM

Now turn to the next compound.
Short answer for CC1(C)C[C@@H](Nc2cccc(-c3sc(C(=O)O)c(OCC(=O)O)c3Cl)c2)CCN1S(=O)(=O)Cc1cccc(NC(=O)C2CCN(C(=O)CNc3ccc4c(c3)CN(C3CCC(=O)NC3=O)C4=O)CC2)c1 (stereo partly shown) : DC50 was 50 to 200 nM
